target: collagenase obtained from a culture of human synovial fibroblasts (Homo sapiens, UniProt P03956); construct: endogenous in cells; test: in vitro collagenase inhibiting activity, microtitre plate assay with 14C-acetylated collagen type I from rat tail tendons as substrate; details: trypsin-activated pro-collagenase; 14C-acetylated collagen type I substrate; concentration reducing substrate cleavage and solubilization to 50%
Sequence (P03956 100-469): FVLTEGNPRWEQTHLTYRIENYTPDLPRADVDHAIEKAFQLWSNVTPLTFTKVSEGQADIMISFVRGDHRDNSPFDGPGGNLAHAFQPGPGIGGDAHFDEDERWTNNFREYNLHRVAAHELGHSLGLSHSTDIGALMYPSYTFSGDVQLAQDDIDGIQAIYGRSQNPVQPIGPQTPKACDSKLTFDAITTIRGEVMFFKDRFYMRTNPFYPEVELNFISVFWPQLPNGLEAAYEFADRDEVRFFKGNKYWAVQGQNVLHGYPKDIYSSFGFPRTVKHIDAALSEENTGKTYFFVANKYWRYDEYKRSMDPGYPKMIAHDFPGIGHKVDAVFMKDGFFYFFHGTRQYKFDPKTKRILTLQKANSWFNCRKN
pIC50: −log10 of the molar value.
Given measured pIC50, output condition met if it is greater than or equal to 8 and condition not met if not.

A selection of reference data follows.
CNC(=O)[C@H]1N(C(=O)[C@H](CC2CCCC2)C(CN2C(=O)N(C)C(C)(C)C2=O)C(=O)NO)CSC1(C)C (single isomer, unassigned) [Example 17]: condition met
CN1C(=O)N(CC(C(=O)NO)[C@@H](CC2CCC2)C(=O)N2CCCCCCC2)C(=O)C1(C)C (single isomer, unassigned) [Example 23]: condition not met

(Q) Please check the record CN1C(=O)N(CC(C(=O)NO)[C@@H](CC2CCC2)C(=O)N2CCC(O)CC2)C(=O)C1(C)C (single isomer, unassigned) [Example 5] and state if its pIC50 is at or above 8.
(A) condition met

(Q) Item CN1C(=O)N(CC(C(=O)NO)[C@@H](CC2CCCC2)C(=O)N2CCOCC2)C(=O)C1(C)C (single isomer, unassigned) [Example 16] with pIC50 of 8 or above?
(A) condition met

(Q) Would you say CN1C(=O)N(CC(C(=O)NO)[C@@H](CC2CC2)C(=O)N2CCC(O)CC2)C(=O)C1(C)C (single isomer, unassigned) [Example 2] shows pIC50 at minimum 8?
(A) condition not met
